Please go through the items and note down their Imax.
# target_or_system: human GCGR (full-length glucagon receptor of 477 amino acids) (human, UniProt P47871 26-477)
# Sequence (P47871 26-477 limits assumed): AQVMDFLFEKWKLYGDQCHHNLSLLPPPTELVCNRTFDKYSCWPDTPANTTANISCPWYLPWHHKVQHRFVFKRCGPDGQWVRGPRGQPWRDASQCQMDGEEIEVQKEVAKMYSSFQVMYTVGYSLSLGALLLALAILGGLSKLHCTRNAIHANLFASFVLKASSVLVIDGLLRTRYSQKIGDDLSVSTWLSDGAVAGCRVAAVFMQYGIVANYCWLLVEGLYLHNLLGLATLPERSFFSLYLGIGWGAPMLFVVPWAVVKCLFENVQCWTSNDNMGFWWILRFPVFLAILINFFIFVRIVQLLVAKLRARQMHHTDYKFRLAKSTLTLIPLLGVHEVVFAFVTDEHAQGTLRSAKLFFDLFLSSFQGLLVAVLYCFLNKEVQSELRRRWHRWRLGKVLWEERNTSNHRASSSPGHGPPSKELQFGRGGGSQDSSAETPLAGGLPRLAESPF
# experimental_details: cell-based or functional assay
Field format: number, assumed %, no unit text.

Asked: Requested field: Imax. Item: hu1803-11 (antibody, human IgG4 S228P, kappa, F234A L235A, V domains shown) VH: EVQLVQSGAEVKKPGASVKVSCKASGYTFTDYWIEWVRQAPGQGLEWIGEILPGSTYTNYNEKFKGRATFTADTSTSTAYMELSSLRSEDTAVYYCSRGLSTLMAVDYFDYWGQGTTVTVSS VL: DIQMTQSPSSLSASVGDRVTITCRASQDISNYLNWYQQKPGKAVKLLIYYSSTLHSGVPSRFSGSGSGTDYTLTISSLQPEDFATYYCQQTNIFPWTFGGGTKVEIKR
Given back: 100

Asked: Requested field: Imax. Item: hu1810-7 (antibody, human IgG4 S228P, kappa, F234A L235A, V domains shown) VH: QVQLVQSGAEVKKPGSSVKVSCKASGGTFSNYAISWVRQAPGQGLEWIGEIYPTSGNTYYNEKFKGRATLTADRSTSTMYMELSSLRSEDTAVYYCASGVITTVVSTDYFDYWGQGTLVTVSS VL: DIQMTQSPSSLSASVGDRVTITCRASLDISNYLNWYQQKPGKAVKLLIYYTSTLHSGVSSRFSGSGSGTDYTLTISSLQPEDFATYYCQQGNMVPYTFGGGTKVEIKR
Given back: 100
